Measured pIC50 by item
# TARGET_OR_TEST_SYSTEM: Cholinesterase (Homo sapiens, UniProt P06276)
# Sequence (P06276 whole entry): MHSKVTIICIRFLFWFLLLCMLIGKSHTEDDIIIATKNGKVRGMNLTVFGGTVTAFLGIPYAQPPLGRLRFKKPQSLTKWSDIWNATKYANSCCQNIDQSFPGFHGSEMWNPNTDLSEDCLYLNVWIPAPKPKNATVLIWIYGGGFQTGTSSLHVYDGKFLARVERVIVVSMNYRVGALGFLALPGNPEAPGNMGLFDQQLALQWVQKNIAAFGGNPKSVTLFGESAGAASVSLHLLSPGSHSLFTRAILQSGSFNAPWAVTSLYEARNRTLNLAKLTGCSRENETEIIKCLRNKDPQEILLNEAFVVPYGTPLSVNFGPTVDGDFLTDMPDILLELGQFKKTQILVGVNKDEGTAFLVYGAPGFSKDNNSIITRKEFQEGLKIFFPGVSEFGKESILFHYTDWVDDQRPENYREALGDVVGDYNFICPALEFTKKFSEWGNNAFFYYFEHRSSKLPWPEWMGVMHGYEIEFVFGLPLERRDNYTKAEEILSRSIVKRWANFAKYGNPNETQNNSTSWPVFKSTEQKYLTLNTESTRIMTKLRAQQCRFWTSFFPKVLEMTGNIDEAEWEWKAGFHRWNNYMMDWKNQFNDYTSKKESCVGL
# TEST_DESCRIPTION: Inhibition of recombinant human BuChE using butyrylthiocholine iodide as substrate preincubated with enzyme for 5 mins followed by substrate addition and measured after 1 min by Ellman's method
pIC50: −log10 of the molar value.
OUTCOME_MEASURE: pIC50

CCCCCCN(CCCc1ccccc1)Cc1cccc(OC)c1OCc1ccccc1	7.40
C=CCN(CCc1ccc(OC)cc1)Cc1cccc(OC)c1OCc1ccccc1	5.70
COc1cccc(CNCc2ccccc2)c1OCc1ccccc1	5.82
CCCN(CCCc1ccccc1F)Cc1cccc(OC)c1OCc1ccccc1	7.70
CCCN(CCCc1cccc(F)c1)Cc1cccc(OC)c1OCc1ccccc1	7.41
CCOc1ccc(CCN(CC)Cc2cccc(OC)c2OCc2ccccc2)cc1	6.05
COc1cccc(CNC(C)CCc2ccccc2)c1OCc1ccccc1 (stereo unspecified)	6.89
C#CCOc1ccc(CCN(CC=C)Cc2cccc(OC)c2OCc2ccccc2)cc1	5.66
C=CCN(CCc1ccccc1OC)Cc1cccc(OC)c1OCc1ccccc1	6.52
COc1cccc(CN(C)CCCc2ccccc2)c1OCc1ccccc1	7.00
COc1cccc(CN(CCCc2ccccc2F)C2CCCC2)c1OCc1ccccc1	8.22
